These data points were gathered from patent US20220073608A1.

Target: T1, mouse SEMA4D, full length, on CHO-K1 cells (CHO-K1 mSEMA4D) (mouse, UniProt O09126 24-861)
T1 construct: whole, on cells; also called murine SEMA4D recombinant cells
T1 sequence (looked up): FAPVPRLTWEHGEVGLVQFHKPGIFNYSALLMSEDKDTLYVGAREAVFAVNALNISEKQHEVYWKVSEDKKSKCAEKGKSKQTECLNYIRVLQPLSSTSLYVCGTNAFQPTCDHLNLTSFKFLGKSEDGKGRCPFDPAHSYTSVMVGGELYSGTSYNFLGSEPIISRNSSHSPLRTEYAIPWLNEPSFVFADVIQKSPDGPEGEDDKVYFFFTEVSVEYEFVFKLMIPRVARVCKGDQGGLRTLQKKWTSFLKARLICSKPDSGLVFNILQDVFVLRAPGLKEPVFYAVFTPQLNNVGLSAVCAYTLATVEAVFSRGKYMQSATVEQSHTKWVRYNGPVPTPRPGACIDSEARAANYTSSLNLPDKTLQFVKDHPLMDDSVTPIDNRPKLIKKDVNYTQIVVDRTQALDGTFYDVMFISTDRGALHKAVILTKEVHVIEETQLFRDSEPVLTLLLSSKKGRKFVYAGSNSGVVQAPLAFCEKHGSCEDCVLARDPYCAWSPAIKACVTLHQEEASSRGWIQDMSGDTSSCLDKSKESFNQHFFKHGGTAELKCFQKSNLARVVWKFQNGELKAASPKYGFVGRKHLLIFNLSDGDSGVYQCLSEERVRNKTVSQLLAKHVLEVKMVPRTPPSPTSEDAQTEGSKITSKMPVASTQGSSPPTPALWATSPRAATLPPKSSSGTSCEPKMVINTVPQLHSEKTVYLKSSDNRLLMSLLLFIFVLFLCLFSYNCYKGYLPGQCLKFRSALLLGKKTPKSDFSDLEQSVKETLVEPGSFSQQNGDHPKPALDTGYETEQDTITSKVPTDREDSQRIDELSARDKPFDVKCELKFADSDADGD
Experiment: FACS, CHO-K1 mSEMA4D cells; Ab 66.7 nM

{"binder": "38H2E3 (antibody, V domains shown, Mouse monoclonal antibody purified from hybridoma supernatant on protein A) VH: EFQLQQSGPEVVKPGASVKISCKASGYSFTDYNMNWMKQSKGKSLEWIGVISPDYGTTTYNQNFKDKATLTVDQSSSTAYMQLNSLTSEDSAVYYCAKDMYYVYAYYTMDYWGHGTSVTVSS VL: DVVMTQTPLSLPVSLGDQASISCRSSQSLVHSNGHTYLHWYLQRPGQSPTLLIYKVSNRFSGVPDRVSGSGSGTDFTLKISRVEAEDLGVYFCSQGTHVPRTFGGGTKLEIK", "MFI": 30}
{"binder": "31G10C5 (antibody, V domains shown, Mouse monoclonal antibody purified from hybridoma supernatant on protein A) VH: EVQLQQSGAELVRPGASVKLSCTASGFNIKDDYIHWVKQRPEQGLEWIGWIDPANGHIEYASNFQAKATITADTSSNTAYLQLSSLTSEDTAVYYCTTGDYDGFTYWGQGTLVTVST VL: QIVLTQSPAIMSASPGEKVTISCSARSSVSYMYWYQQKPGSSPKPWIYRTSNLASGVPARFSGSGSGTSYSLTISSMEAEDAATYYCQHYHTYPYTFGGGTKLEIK", "MFI": 32.4}
{"binder": "42B7G2 (antibody, V domains shown, Mouse monoclonal antibody purified from hybridoma supernatant on protein A) VH: QVQLQQSGAELARPGASVKLSCKASGYTFTDYGISWVKQRTGQGLEWIGEIYLRNDNSYYNEKFKGKATLTADKSSNTAYMELRSLTSEDSAVYFCARWGDHGNNYEDAMDYWGQGTSVTVSS VL: DIVLTQSPASLAMSLGKRATISCRASESVSIIGSNLIHWYQQKPGQPPKLLIYHASNLETGVPARFSGSGSRTDFTLTIDPVEEDDVAIYYCLQSRKVPYTFGGGTKLEIK", "MFI": 35.3}
{"binder": "31C11G2 (antibody, V domains shown, Mouse monoclonal antibody purified from hybridoma supernatant on protein A) VH: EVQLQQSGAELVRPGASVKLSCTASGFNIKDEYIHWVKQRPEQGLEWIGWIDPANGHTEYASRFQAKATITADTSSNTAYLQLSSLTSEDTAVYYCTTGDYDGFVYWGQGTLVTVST VL: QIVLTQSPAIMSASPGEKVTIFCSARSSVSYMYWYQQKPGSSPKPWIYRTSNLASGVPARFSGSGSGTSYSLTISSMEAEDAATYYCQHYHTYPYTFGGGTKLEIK", "MFI": 31.4}
{"binder": "32C8F10 (antibody, V domains shown, Mouse monoclonal antibody purified from hybridoma supernatant on protein A) VH: EVQLQQSGAELVRPGASVKLSCTASGFNIKDEYIHWVKQRPEQGLEWIGWIDPANGHTEYASRFQAKATITADTSSNTAYLQLSSLTSEDTAVYYCTTGDYDGFAYWGQGTLVTVST VL: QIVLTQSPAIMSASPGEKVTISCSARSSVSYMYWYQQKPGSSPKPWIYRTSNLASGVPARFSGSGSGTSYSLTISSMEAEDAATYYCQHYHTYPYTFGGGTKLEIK", "MFI": 31.7}
{"binder": "37C4F7 (antibody, V domains shown, Mouse monoclonal antibody purified from hybridoma supernatant on protein A) VH: EFQLQQSGPEVVKPGASVKISCKASGYSFTDYNMNWMKQSKGKSLEWIGVINPNYGTTTYNQNFKGKATLTVDQSSSTAYMQLNSLTSEDSAVYYCARDMYYVYAYYTMDYWGQGTSVTVSS VL: DVVMTQTPLSLPVSLGDQASISCRSSQSLVHSNGHTYLHWYLQRPGQSPTLLIYKVSNRFSGVPDRFSGSGSGTDFTLKISRVEAEDLGVYFCSQGTHVPWTFGGGTKLEIK", "MFI": 30}
{"binder": "37F11F9 (antibody, V domains shown, Mouse monoclonal antibody purified from hybridoma supernatant on protein A) VH: EVQLQQSGPVLVKPGASVKMSCKASGYTFTDYYMNWVKQSHGKSLEWIGLINPYSGGSTFNQKFKAKATLTVDKSSSSAYMDLNSLTSEDSAVYYCARVGDGYYGVTHGMDYWGQGTSVTVSS VL: DIVMTPSQKFMSTTVGDRVSITCKASQNVGTAVAWYQQKPGQSPTILIYSASNRYTGVPDRFTGSGSGTDFTLTISNMKSEDLADYFCQQYYIYPFTFAAGTKLELK", "MFI": 31}
